The measured values listed here are drawn from paper PMC10969742.

Procedure Text: Plasma pharmacokinetics of bimiralisib, non-compartmental analysis (LC-MS)
Assay type: in vivo, human
Assay Conditions: human, plasma, oral, 80 mg, Intermittent Dose Schedule B, 80 mg, Day 1, 4 patients; read-out: AUC0–24 Geometric Mean (%CV)
Reported Property: AUC(0-t) (ng·h/mL)
Write the number in ng·h/mL without appending the unit.

Note to self: AUC(0-t) recorded for Nc1cc(C(F)(F)F)c(-c2nc(N3CCOCC3)nc(N3CCOCC3)n2)cn1 [bimiralisib] was 4000

* * *

Procedure Text: Plasma pharmacokinetics of bimiralisib, non-compartmental analysis (LC-MS)
Format: in vivo, human
Assay Conditions: human, plasma, oral, 100 mg, Continuous Dosing, 100 mg, Day 1, 5 patients; read-out: AUC0–24 Geometric Mean (%CV)
Reported Property: AUC(0-t) (ng·h/mL)
Write the number in ng·h/mL without appending the unit.

get_value(item= `Nc1cc(C(F)(F)F)c(-c2nc(N3CCOCC3)nc(N3CCOCC3)n2)cn1` , readout=AUC(0-t)) returns 4660

* * *

Procedure Text: Plasma pharmacokinetics of bimiralisib, non-compartmental analysis (LC-MS)
Assay type: in vivo, human
Assay Conditions: human, plasma, oral, 200 mg, Intermittent Dose Schedule B, 200 mg, Day 8, 4 patients; read-out: Cmax Mean (%CV)
Reported Property: Cmax (ng/mL)
// note: answer is a bare numeric in ng/mL

Sure, the documented Cmax for `Nc1cc(C(F)(F)F)c(-c2nc(N3CCOCC3)nc(N3CCOCC3)n2)cn1` is 1200

* * *

Procedure Text: Plasma pharmacokinetics of bimiralisib, non-compartmental analysis (LC-MS)
Format: in vivo, human
Assay Conditions: human, plasma, oral, 160 mg, Intermittent Dose Schedule B, 160 mg, Day 1, 3 patients; read-out: AUC0–8 Geometric Mean (%CV)
Reported Property: AUC(0-t) (ng·h/mL)
Numbers only here, please. The scale is ng·h/mL.

Record summary for `Nc1cc(C(F)(F)F)c(-c2nc(N3CCOCC3)nc(N3CCOCC3)n2)cn1` : reported AUC(0-t) = 1050

* * *

Procedure Text: Plasma pharmacokinetics of bimiralisib, non-compartmental analysis (LC-MS)
Type: in vivo, human
Assay Conditions: human, plasma, oral, 80 mg, Intermittent Dose Schedule A, 80 mg, Day 8, 3 patients; read-out: Tmax Median, (Range)
Protocol: Blood samples were collected to enable full PK profiling of bimiralisib. […] The pharmacokinetics of bimiralisib were determined by non-compartmental analysis. Area under the concentration vs. time curve (AUC) was calculated using the linear up log down trapezoidal method. Accumulation was calculated as the ratio of cycle 1 on Day 15 AUC0–8h versus cycle 1 on Day -3 AUC0–8h.
Reported Property: Tmax (h)
Write it as a number; the unit h goes unstated.

Lookup result for `Nc1cc(C(F)(F)F)c(-c2nc(N3CCOCC3)nc(N3CCOCC3)n2)cn1` ; measured Tmax: 1

* * *

Procedure Text: Plasma pharmacokinetics of bimiralisib, non-compartmental analysis (LC-MS)
Type: in vivo, human
Assay Conditions: human, plasma, oral, 100 mg, Intermittent Dose Schedule A, 100 mg, Day 8, 3 patients; read-out: Tmax Median, (Range)
Reported Property: Tmax

`Nc1cc(C(F)(F)F)c(-c2nc(N3CCOCC3)nc(N3CCOCC3)n2)cn1` has a reported Tmax of 1 h

* * *

Procedure Text: Plasma pharmacokinetics of bimiralisib, non-compartmental analysis (LC-MS)
Format: in vivo, human
Assay Conditions: human, plasma, oral, 100 mg, Intermittent Dose Schedule A, 100 mg, Day -3, 4 patients; read-out: AUC0–24 Geometric Mean (%CV)
Reported Property: AUC(0-t) (ng·h/mL)
Note: unit ng·h/mL is implicit; provide only the numeric part.

The reported value for `Nc1cc(C(F)(F)F)c(-c2nc(N3CCOCC3)nc(N3CCOCC3)n2)cn1` in terms of AUC(0-t) is 4170
